# credit: PubChem BioAssay (NCI)

system: OVCAR-4 ovarian; assay: NCI tumour cell line growth inhibition, 48 h
As shown below, each of these compounds has a reported TGI value.
measurement_type: TGI

| compound | measurement_type | result |
| --- | --- | --- |
| COCC1N=C(c2cc(OC)c(OC)c(OC)c2-c2cc3c(cc2[C@@H](C)O)OCO3)O[C@H]1c1ccccc1 (stereo partly drawn) | TGI | > 100 µM |
| CN(C)CCOc1ccc2[nH]c(C(=O)N3CC(CCl)c4ccc(N)cc43)cc2c1 (stereo not drawn) | TGI | 0.46 µM |
| O=C1C(c2c(O)[nH]c3ccc(I)cc23)=Nc2ccccc21 | TGI | > 44.7 µM |

* * *

system: SW-620 colon; assay: NCI tumour cell line growth inhibition, 48 h
measurement_type: GI50

| smiles_entry | target_system | result |
| --- | --- | --- |
| ClCc1ccc(-c2ccc(Cn3cnc4c(Cl)ncnc43)cc2)cc1 | SW-620 colon | 2430 nM |
| O=C1Nc2c(ccc(Cl)c2Cl)/C1=C\c1cc(C(F)(F)F)cc(C(F)(F)F)c1 | SW-620 colon | 1660 nM |
| COc1cc(-c2ccc(=O)oc2C#Cc2ccccc2)cc(OC)c1OC | SW-620 colon | 13300 nM |
| NCCCCCCCCCn1c2c(c3ccccc3c1=O)C(=O)c1ccccc1-2 | SW-620 colon | 6110 nM |
| CNC(=O)c1cc(Oc2ccc3nc(NC(=O)Nc4cc(C(F)(F)F)cc(C(F)(F)F)c4)sc3c2)ccn1 | SW-620 colon | 1560 nM |

* * *

test system: CAKI-1 renal; test: NCI tumour cell line growth inhibition, 48 h

| compound | TGI |
| --- | --- |
| Cn1cc(-c2ccc3nnc(C(F)(F)c4ccc5ncccc5c4)n3n2)cn1 | > 100 µM |
| CN(C)C=Nc1c2c(nc3ccccc13)CCCC2 | > 100 µM |
| Cc1cc(N(CCC#N)CCC#N)ccc1CC1N=C(c2ccccc2)OC1=O (stereo not drawn) | > 100 µM |

* * *

test system: M14 melanoma; test: NCI tumour cell line growth inhibition, 48 h; in the data active means GI50 below about 0.43 µM; inactive means the rest
Possible outcomes: active, inactive

| compound | class_name |
| --- | --- |
| COc1cccc(/C=C2\CCc3ccccc3C2=O)c1 | inactive |
| Cn1cc(-c2ccc3nnc(C(F)(F)c4ccc5ncccc5c4)n3n2)cn1 | inactive |
| Cc1nc2cc(Nc3nc(Nc4ccc(F)cc4)nc(N4CCCC4)n3)ccc2n1Cc1ccccc1 | inactive |
| COC1=CC(c2ccc[nH]2)=N/C1=C\c1[nH]c(C)c(C)c1CCC(=O)OCc1ccccc1 | active |
| NCCCCCCCCCn1c2c(c3ccccc3c1=O)C(=O)c1ccccc1-2 | inactive |
| Cc1ccnc(NC(c2ccccc2)c2ccc3cccnc3c2O)c1 (centres undefined) | inactive |
| COc1ccc(Nc2ncccc2C(=O)NCc2cn(Cc3cccc(Oc4ccccc4)c3)nn2)c(OC)c1 | inactive |
| O=C(NC(Cc1ccccc1)C(=O)CCl)OCc1ccccc1 (centres undefined) | inactive |
| N/C(=N\C(N)=N\c1nc2ccccc2s1)c1ccnc(Br)c1 | inactive |

* * *

tested on: RPMI-8226 leukemia; test: NCI tumour cell line growth inhibition, 48 h

| compound | TGI |
| --- | --- |
| Cn1c2c(c3ccccc31)CCN(CCCN1CCN(c3ccccc3)CC1)C2=O | 36.7 µM |
| CP(=O)(O)C(N)c1ccccc1 (stereo not given) | > 100 µM |
| Cc1sc2nc3n(c(=O)c2c1C)N=C(c1ccccc1)CS3 | > 100 µM |
| COc1cc2oc(-c3ccc(O)cc3)cc(=O)c2c(OC)c1O | > 100 µM |
| COc1c(OC)c(OC)c(-c2cc(=O)c3c(OC)c(OC)c(OC)c(OC)c3o2)c(OC)c1OC | > 100 µM |

* * *

As shown below, each of these compounds has a reported TGI value.
tested on: HT29 colon; assay: NCI tumour cell line growth inhibition, 48 h

| compound | TGI |
| --- | --- |
| O=Cc1cn(S(=O)(=O)c2ccccc2)c2ccccc12 | > 100 µM |
| COc1ccc(N2C(=O)C(=O)C3(CCCCC3)C2=O)c(OC)c1OC | > 100 µM |
| Clc1ccc(Nc2nnc(CNc3ccc(-c4nnc(Nc5ccc(Cl)cc5)o4)cc3)o2)cc1 | 33.1 µM |
| Nc1nc(-c2ccc3ccccc3c2)cc(-c2cc(-c3ccc4ccccc4c3)nc(N)n2)n1 | > 100 µM |
| Cc1nc2cc(Nc3nc(Nc4ccc(F)cc4)nc(N4CCCC4)n3)ccc2n1Cc1ccccc1 | 3.89 µM |
| CCOC(=O)Cn1c(=O)[nH]c(=O)c2[nH]cnc21 | > 100 µM |
| C1=CC(=NN=P(c2ccccc2)(c2ccccc2)c2ccccc2)C=C1 | > 100 µM |
| CCN(CCN(CC)C(=O)NC)C(=O)NC | > 100 µM |
| O=C1CCCCCCCCCCOC(=O)CCCCCCCCCCO1 | > 100 µM |
| CC(C)OC(=O)c1cccnc1/C=N/O | > 100 µM |
| N#CC(C#N)C1CN2CCC1CC2 (stereo not drawn) | > 100 µM |
| Cc1cc2nc3c4cc([N+](=O)[O-])ccc4n(CCN(C)C)c3nc2cc1C | 2.33 µM |
| C=CCCCC(O)c1ccc(C(O)c2cnc3ccccc3c2)o1 (stereo not drawn) | > 100 µM |
| CCOP(=O)(OCC)C(C)(CC)/N=C(\N)NC#N (stereo not drawn) | > 100 µM |
| COc1cc2nc3n(c(=O)c2cc1OC)CCCCC3 | > 100 µM |
| O=C1C(=Cc2ccc([N+](=O)[O-])o2)C(=O)N(CCc2ccccc2)S(=O)(=O)N1CCc1ccccc1 | > 100 µM |
| O=C1NC2OC(CO)C(O)C(O)C2O1 (stereo not drawn) | > 100 µM |
| O=c1[nH]c(-c2ccc(Cl)cc2)cc2ccsc12 | > 100 µM |

* * *

tested on: SK-OV-3 ovarian; assay: NCI tumour cell line growth inhibition, 48 h
measurement_type: GI50

| compound | measurement_type | result |
| --- | --- | --- |
| ClCc1ccc(-c2ccc(Cn3cnc4c(Cl)ncnc43)cc2)cc1 | GI50 | 1.98 µM |
| Nc1nc(Cl)nc2c1ncn2C1OC(CO)C(O)C1O (stereo not drawn) | GI50 | 7.5 µM |
| O=[N+]([O-])c1cccc([I+]c2ccccc2)c1 | GI50 | 13.8 µM |

* * *

As shown below, each of these compounds has a reported TGI value.
system: MCF7 breast; test: NCI tumour cell line growth inhibition, 48 h
measurement_type: TGI

| smiles_entry | result |
| --- | --- |
| O=C1[C@H](O)[C@@H]2CCC[C@@]23CCCN13 | > 100 µM |
| Cc1cc2c(cc1-c1cc3c(cc1C)C(C(C)C)=C(O)C(=O)/C3=C\Nc1ccccn1)/C(=C/Nc1ccccn1)C(=O)C(O)=C2C(C)C | > 100 µM |
| CC(C)(N)C(=O)N[C@@H]1C(=O)N2[C@@H]1SC(C)(C)[C@@H]2C(=O)O | > 100 µM |

* * *

As shown below, each of these compounds has a reported TGI value.
system: HS 578T breast; assay: NCI tumour cell line growth inhibition, 48 h

| compound | target_system | TGI |
| --- | --- | --- |
| O=C(Nc1ccc(Cl)cc1)c1cc2ccccc2cc1OP(=O)(O)O | HS 578T breast | 19.8 µM |
| Nc1nc(N)c2nc(CNc3ccc(C(=O)NC(CCNC(=O)c4ccccc4C(=O)O)C(=O)O)cc3)cnc2n1 (configuration not stated) | HS 578T breast | > 100 µM |
| O=[N+]([O-])c1ccc2c(N=Nc3ccc4ccccc4c3O)c(O)cc(S(=O)(=O)O)c2c1 | HS 578T breast | > 100 µM |
| O=C1CCc2ccccc2O1 | HS 578T breast | > 100 µM |
| COc1cc(OC)c(/C=C/C(=O)c2c(O)cc(OC)c(C3CCN(C)CC3)c2OC)c(OC)c1 | HS 578T breast | 4.29 µM |
| COc1cc(/C=C/C2=NN(c3cccc(S(=O)(=O)O)c3)C3(C2)SCC(=O)N3c2nc3ccccc3s2)cc(OC)c1OC (configuration not stated) | HS 578T breast | > 100 µM |
| O=C1C(c2c(O)[nH]c3ccc(I)cc23)=Nc2ccccc21 | HS 578T breast | > 100 µM |

* * *

tested on: EKVX NSCLC; test: NCI tumour cell line growth inhibition, 48 h
As shown below, each of these compounds has a reported TGI value.
measurement_type: TGI (µM)

| compound | qual | quantitative_readout |
| --- | --- | --- |
| COc1cc(-c2ccc(=O)oc2C#Cc2ccccc2)cc(OC)c1OC | > | 100 |
| CN(C)CCCN=c1c2ccccc2n(C)c2[nH]c(=O)n(C)c(=O)c12 | = | 28.9 |
| CCC1OC(=O)CC(O)C(C)C(OC2OC(C)CC(N(C)C)C2O)C(CC=O)CC(C)C(=O)/C=C/C2(C)OC2C1C (stereo not drawn) | = | 44.8 |
